Target: Quadruplex DNA
Assay: Binding affinity to 5' FAM-labeled […] (unknown origin) assessed as dissociation constant by surface plasmon resonance assay
Type: nucleic-acid assay
ENDPOINT LABEL: Kd (µM)

CCN(CC)CCCNC(=O)c1ccc(/C=C2\CCn3c2nc2cc(NCCCN4CCCC4)c(F)cc2c3=O)cc1 = 3.6
CN(C)CCCNC(=O)c1ccc(/C=C2\CCn3c2nc2cc(N4CCN(CCCCCCCC(=O)NO)CC4)c(F)cc2c3=O)cc1.Cl = 4.5

###

Molecular target: Histone deacetylase 8 (Homo sapiens, UniProt Q9BY41)
Sequence (Q9BY41 whole entry): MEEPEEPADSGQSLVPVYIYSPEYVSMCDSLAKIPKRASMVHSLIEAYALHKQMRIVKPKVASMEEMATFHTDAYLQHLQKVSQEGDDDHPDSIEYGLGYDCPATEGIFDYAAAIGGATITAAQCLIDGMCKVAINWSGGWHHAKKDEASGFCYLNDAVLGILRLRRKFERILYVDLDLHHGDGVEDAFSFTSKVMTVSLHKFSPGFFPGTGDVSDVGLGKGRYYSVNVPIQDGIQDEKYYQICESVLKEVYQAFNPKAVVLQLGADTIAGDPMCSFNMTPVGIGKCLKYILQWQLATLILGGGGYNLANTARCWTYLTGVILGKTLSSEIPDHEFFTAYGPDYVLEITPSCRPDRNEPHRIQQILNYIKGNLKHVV
Assay: Inhibition of full length recombinant N-terminal GST-tagged human HDAC8 expressed in baculovirus infected Sf9 insect cells incubated for 50 mins by Glo- luminescence assay
ENDPOINT LABEL: IC50 (nM)
Give the quantity in nM, number only.

The compound listed as CN(C)CCCNC(=O)c1ccc(/C=C2\CCn3c2nc2cc(N4CCN(CCCCCCCC(=O)NO)CC4)c(F)cc2c3=O)cc1.Cl has a reported IC50 of 30
